assay.notes: Antiproliferative activity against human KB-7d cells expressing MRP after 72 hrs by methylene blue assay
Format: functional, cell-based
condition.set: KB7D
pIC50: −log10 of the molar value.
Given measured pIC50, output Satisfied if it is greater than or equal to 8 and Not satisfied if not.

chemical.string	class.name
COc1cc(C(=O)c2cccc3c2ccn3C)c(O)c(OC)c1OC	Not satisfied
COc1cc(C(=O)c2ccc3c(ccn3C)c2)c(O)c(OC)c1OC	Not satisfied
CC[C@]1(O)C[C@H]2CN(CCc3c([nH]c4ccccc34)[C@@](C(=O)OC)(c3cc4c(cc3OC)N(C=O)[C@H]3[C@@](O)(C(=O)OC)[C@H](OC(C)=O)[C@]5(CC)C=CCN6CC[C@]43[C@@H]65)C2)C1	Satisfied
